target: PDE7A (Homo sapiens); construct: carried out using cell lysate containing full length PDE7A and PDE7B enzyme; experiment: PDE7A inhibition, [3H]-cAMP scintillation proximity assay; conditions: IC50 converted to Ki by Cheng-Prussof equation; cell lysate with full length enzyme, ~25 nM cAMP
Sequence (Q13946 whole entry, species assumed): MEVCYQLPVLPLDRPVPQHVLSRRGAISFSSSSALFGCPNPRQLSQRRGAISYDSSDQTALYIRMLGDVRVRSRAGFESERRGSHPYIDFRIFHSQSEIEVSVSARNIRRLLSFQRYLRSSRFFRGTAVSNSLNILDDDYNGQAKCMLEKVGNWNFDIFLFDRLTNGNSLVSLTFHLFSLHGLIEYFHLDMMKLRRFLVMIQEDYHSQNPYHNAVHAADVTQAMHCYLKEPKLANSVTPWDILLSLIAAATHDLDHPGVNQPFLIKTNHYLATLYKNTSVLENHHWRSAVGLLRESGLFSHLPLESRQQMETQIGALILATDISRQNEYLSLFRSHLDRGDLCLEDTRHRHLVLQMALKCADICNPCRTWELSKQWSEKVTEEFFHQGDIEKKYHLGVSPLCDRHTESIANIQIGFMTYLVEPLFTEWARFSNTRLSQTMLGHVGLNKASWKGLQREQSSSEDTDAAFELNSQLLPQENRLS
Form field: log10 of Ki (one value per entry).
MEASUREMENT KIND: log10 of Ki (log10 of the value in nM)

[
  {
    "COMPOUND": "O=C1Nc2c(F)ccc(OCC3(C(=O)O)CCC3)c2C2(CCCCC2)N1 [Example 5]",
    "log10 of Ki": 2.44
  },
  {
    "COMPOUND": "N#Cc1ccc(O[C@H]2C[C@H](C(=O)O)C2)c2c1NC(=O)NC21CCCCC1 [Example 4]",
    "log10 of Ki": 1.06
  },
  {
    "COMPOUND": "O=C1Nc2c(Cl)ccc(O[C@H]3C[C@H](C(=O)O)C3)c2C2(CCCCC2)N1 [Example 2]",
    "log10 of Ki": 0.49
  },
  {
    "COMPOUND": "O=C1Nc2c(F)ccc(OCC3CC(C(=O)O)C3)c2C2(CCCCC2)N1 (stereo not drawn) [Example 3]",
    "log10 of Ki": 1.19
  },
  {
    "COMPOUND": "O=C1Nc2c(Cl)ccc(O[C@H]3C[C@H](C(=O)O)C3)c2C2(CCCC2)N1 [Example 7]",
    "log10 of Ki": 1.30
  },
  {
    "COMPOUND": "O=C1Nc2c(Cl)ccc(O[C@H]3C[C@@H](C(=O)O)C3)c2C2(CCCCC2)N1 [Example 1]",
    "log10 of Ki": 0.28
  }
]

----------
Recorded Vd (volume of distribution in rat), one value per entry.
experiment: Rat IV pharmacokinetics; format: in vivo; conditions: rat, in vivo, iv

[
  {
    "COMPOUND": "O=C1Nc2c(Cl)ccc(O[C@H]3C[C@H](C(=O)O)C3)c2C2(CCCCC2)N1 [Example 2]",
    "Vd (volume of distribution in rat) [L/kg]": 0.7
  },
  {
    "COMPOUND": "O=C1Nc2c(Cl)ccc(O[C@H]3C[C@@H](C(=O)O)C3)c2C2(CCCCC2)N1 [Example 1]",
    "Vd (volume of distribution in rat) [L/kg]": 0.6
  }
]

----------
half-life listing for selected molecules.
test: Estimate of human pharmacokinetics by scaling rat unbound clearance; settings: human; T1/2=[ln(2)*Vd]/Cl, Vd in man assumed 0.2 L/kg; read-out: Estimated T1/2 (human half-life) (converted)
MEASUREMENT KIND: half-life (h)

[
  {
    "CHEMICAL STRUCTURE": "O=C1Nc2c(Cl)ccc(O[C@H]3C[C@H](C(=O)O)C3)c2C2(CCCCC2)N1",
    "NUMERIC RESULT": 10
  },
  {
    "CHEMICAL STRUCTURE": "O=C1Nc2c(Cl)ccc(O[C@H]3C[C@@H](C(=O)O)C3)c2C2(CCCCC2)N1",
    "NUMERIC RESULT": 3
  }
]

----------
Collected half-life values appear next to each entry.
assay: Rat IV pharmacokinetics; type: in vivo; conditions: male, rat, in vivo, iv
MEASUREMENT KIND: half-life (h)

[
  {
    "CHEMICAL STRUCTURE": "O=C1Nc2c(Cl)ccc(O[C@H]3C[C@@H](C(=O)O)C3)c2C2(CCCCC2)N1",
    "MEASUREMENT KIND": "half-life",
    "NUMERIC RESULT": 4
  },
  {
    "CHEMICAL STRUCTURE": "O=C1Nc2c(Cl)ccc(O[C@H]3C[C@H](C(=O)O)C3)c2C2(CCCCC2)N1",
    "MEASUREMENT KIND": "half-life",
    "NUMERIC RESULT": 11
  }
]

----------
biological target: PDE7B (Homo sapiens, UniProt Q9NP56); construct: carried out using cell lysate containing full length PDE7A and PDE7B enzyme; assay: PDE7B inhibition, [3H]-cAMP scintillation proximity assay; conditions: IC50 converted to Ki by Cheng-Prussof equation; cell lysate with full length enzyme, ~25 nM cAMP
Sequence (Q9NP56 whole entry, species assumed): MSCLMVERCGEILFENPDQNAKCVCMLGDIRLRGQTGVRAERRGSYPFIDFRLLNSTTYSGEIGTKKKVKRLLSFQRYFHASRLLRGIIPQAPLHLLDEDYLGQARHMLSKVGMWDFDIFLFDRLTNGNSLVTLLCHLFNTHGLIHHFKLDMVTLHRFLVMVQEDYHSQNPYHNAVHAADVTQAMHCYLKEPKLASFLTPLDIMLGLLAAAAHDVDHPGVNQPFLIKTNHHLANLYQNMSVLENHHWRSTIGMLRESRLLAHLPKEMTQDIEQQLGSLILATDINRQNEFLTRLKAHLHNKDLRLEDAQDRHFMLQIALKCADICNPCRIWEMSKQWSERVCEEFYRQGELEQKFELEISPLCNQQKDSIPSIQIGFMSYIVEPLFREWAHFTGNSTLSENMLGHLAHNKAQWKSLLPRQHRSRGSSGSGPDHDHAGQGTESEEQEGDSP
Parameter: Ki. Scope: all listed entries.

[
  {
    "COMPOUND": "O=C1Nc2c(F)ccc(OCC3CC(C(=O)O)C3)c2C2(CCCCC2)N1 (stereo not drawn) [Example 3]",
    "Ki": "108 nM"
  },
  {
    "COMPOUND": "O=C1Nc2c(Cl)ccc(O[C@H]3C[C@H](C(=O)O)C3)c2C2(CCCCC2)N1 [Example 2]",
    "Ki": "13.4 nM"
  },
  {
    "COMPOUND": "O=C1Nc2c(Cl)ccc(O[C@H]3C[C@H](C(=O)O)C3)c2C2(CCCCCC2)N1 [Example 6]",
    "Ki": "17.6 nM"
  }
]

----------
assay: Blood to plasma ratio in human blood; format: in vitro ADME; conditions: human, read-out: B:P (blood to plasma ratio)

[
  {
    "MOLECULE": "O=C1Nc2c(Cl)ccc(O[C@H]3C[C@@H](C(=O)O)C3)c2C2(CCCCC2)N1 [Example 1]",
    "blood plasma ratio": 0.6
  },
  {
    "MOLECULE": "O=C1Nc2c(Cl)ccc(O[C@H]3C[C@H](C(=O)O)C3)c2C2(CCCCC2)N1 [Example 2]",
    "blood plasma ratio": 0.7
  }
]

----------
Listed next: entries and their corresponding clearance.
Assay: Rat IV pharmacokinetics
Type: in vivo
Settings: male, rat, in vivo, iv
Experimental: The pharmacokinetic properties of the compounds of Examples 1 and 2 were tested in the rat model described below. […] The test compounds were administered to male rats (each rat receiving one compound), via the tail vein, at a dose of 1 mg/kg (0.08 mg/kg for the compound of Example 1). […] Plasma samples were analysed via a specific LC-MS/MS assay for the quantification of drug in plasma. […]

[
  {
    "CHEMICAL STRUCTURE": "O=C1Nc2c(Cl)ccc(O[C@H]3C[C@H](C(=O)O)C3)c2C2(CCCCC2)N1",
    "clearance / mL/min/kg": 0.7
  },
  {
    "CHEMICAL STRUCTURE": "O=C1Nc2c(Cl)ccc(O[C@H]3C[C@@H](C(=O)O)C3)c2C2(CCCCC2)N1",
    "clearance / mL/min/kg": 1.9
  }
]

----------
assay: Human hepatic metabolic stability in cryopreserved human hepatocytes; assay type: in vitro ADME; details: human, hepatocytes, pH 7.4
Entries and their measured hepatocyte CLint at 1 μM follow.

[
  {
    "CHEMICAL STRUCTURE": "N#Cc1ccc(O[C@H]2C[C@H](C(=O)O)C2)c2c1NC(=O)NC21CCCCC1",
    "hepatocyte CLint at 1 μM": "< 5 µL/min/1e6 cells"
  },
  {
    "CHEMICAL STRUCTURE": "O=C1Nc2c(Cl)ccc(O[C@H]3C[C@H](C(=O)O)C3)c2C2(CCCCC2)N1",
    "hepatocyte CLint at 1 μM": "< 5 µL/min/1e6 cells"
  },
  {
    "CHEMICAL STRUCTURE": "O=C1Nc2c(F)ccc(OCC3(C(=O)O)CCC3)c2C2(CCCCC2)N1",
    "hepatocyte CLint at 1 μM": "< 5 µL/min/1e6 cells"
  }
]

----------
target: PDE7B (Homo sapiens); construct: carried out using cell lysate containing full length PDE7A and PDE7B enzyme; assay: PDE7B inhibition, [3H]-cAMP scintillation proximity assay; conditions: IC50 converted to Ki by Cheng-Prussof equation; cell lysate with full length enzyme, ~25 nM cAMP
Reported Ki values follow for various molecules

[
  {
    "CHEMICAL STRUCTURE": "O=C1Nc2c(Cl)ccc(O[C@H]3C[C@H](C(=O)O)C3)c2C2(CCCC2)N1",
    "ASSAYED SYSTEM": "PDE7B (Homo sapiens)",
    "Ki (nM)": 140
  },
  {
    "CHEMICAL STRUCTURE": "N#Cc1ccc(O[C@H]2C[C@H](C(=O)O)C2)c2c1NC(=O)NC21CCCCC1",
    "ASSAYED SYSTEM": "PDE7B (Homo sapiens)",
    "Ki (nM)": 144
  },
  {
    "CHEMICAL STRUCTURE": "O=C1Nc2c(Cl)ccc(O[C@H]3C[C@@H](C(=O)O)C3)c2C2(CCCCC2)N1",
    "ASSAYED SYSTEM": "PDE7B (Homo sapiens)",
    "Ki (nM)": 4.6
  },
  {
    "CHEMICAL STRUCTURE": "O=C1Nc2c(F)ccc(OCC3(C(=O)O)CCC3)c2C2(CCCCC2)N1",
    "ASSAYED SYSTEM": "PDE7B (Homo sapiens)",
    "Ki (nM)": 1420
  }
]
